experiment: plasmodial surface anion channel blockers, osmotic lysis – cell-based, P. falciparum Indochina, OD700, 1 h, primary screen (AID 1154); details: P. falciparum Indochina infected RBC osmotic lysis, higher = more signal, called active from +8 up or from −8 down
measure: z-score
Write the number on its own, no unit after it.

Qu. Tell me the measured z-score of CC1CC/C=C\[C@H]2OC34C=CCN(C(C)C)C(=O)[C@H]3N(CCO)C(=O)[C@@H]4C2C(=O)O1 (stereo not given in full) , please.
Ans. 0.158

Qu. For the molecule shown here, COc1cc2c(cc1O)C(c1cccs1)N(Cc1cc3c(cc1Br)OCO3)CC2 (stereo not given) , give the reported z-score.
Ans. 10.2

Qu. What value of measured z-score is listed for CCC#CCN(Cc1ccccc1Br)[C@H](/C=C/C1CC1)[C@@H](O)Cc1ccccc1 ?
Ans. -0.224

Qu. Would you kindly share the measured z-score for C[N+](C)(C)CCCCCCNC(=O)[C@@H]1C[C@@H]2C(=O)N3CCC[C@H]3C(=O)N2[C@@H]1c1ccc(O)cc1 ?
Ans. 1.55

Qu. Recorded z-score of CC(CO)N1C(=O)[C@@H]2[C@H]3C(=O)OCC=C[C@H]3OC23C=CCN(Cn2nnc4ccccc42)C(=O)[C@@H]13 (stereo not given in full) , please.
Ans. 0.638

Qu. State the recorded z-score for this entry: CCOC(=O)C[C@H]1[C@H](OC(=O)c2ccc(-c3ccccc3)cc2)[C@@H](NC(=O)CC(C)C)c2cc(OCCCO)ccc2N1C(=O)c1ccc2ccccc2n1
Ans. 2.19

Qu. Which z-score value is on record for N[C@@H](Cc1ccccc1)C(=O)NCc1cn(Cc2ccccc2)nn1 ?
Ans. -0.39

Qu. State the recorded z-score for this entry: CCOC(=O)C[C@H]1[C@H](OC(=O)Cc2ccc3c(c2)OCO3)[C@@H](NC(=O)c2ccc3ccccc3n2)c2cc(OCCCO)ccc2N1C(=O)c1ccccc1
Ans. 8.88

Qu. Which value of z-score has been reported for N#Cc1ccc(NN2C(C(O)c3ccc(Br)cc3)C=CC3C(=O)N(c4ccccc4)C(=O)C32)cc1 (stereo not given) in the records?
Ans. 14.8

Qu. Query: z-score; subject: O=C1O[C@@H](c2ccccc2)[C@@H](c2ccccc2)N2[C@@H](c3ccc(O)cc3)[C@]3(C(=O)Nc4ccc(C#CCCO)cc43)[C@@H](C(=O)N3CCN(c4ncccn4)CC3)[C@H]12
Ans. 1.97

Qu. Look up z-score for this molecule: COCC(=C=CC[C@H](O)c1ccc(OCCO)cc1)CCO
Ans. 9.25

Qu. I am curious: what z-score value has been reported for COC(=O)[C@@]1(Cc2ccccc2)[C@H]2c3cc(C(=O)N4CCCC4)n(CCc4ccccn4)c3C[C@H]2CN1C(=O)c1ccccc1 ?
Ans. 1.93

Qu. Param item = CCCC=C(CCC)[C@@H](NC(=O)C(C)(C)C)c1ccc(C(=O)OC)cc1 ; retrieve measured z-score.
Ans. 0.494

Qu. GET /values?readout=z-score&item= CN(C)c1ccc(C(O)C2C=CC3C(=O)NC(=O)C3N2Nc2ccccn2)cc1 (stereo not given)
Ans. 0.85

Qu. z-score for CCCCC(CC)C(O)C1C=CC2C(=O)N(c3ccccc3)C(=O)C2N1Nc1ccc(C#N)cc1 (stereo not given) ?
Ans. 9.85

Qu. // lookup z-score for C[N+](C)(C)CCCC[C@@H]1NC(=O)[C@@H]2C[C@H](C(=O)NCCCCCCN)[C@H](c3cccc(OCCO)c3)N2C1=O
Ans. 2.07

Qu. Which z-score is reported for this molecule? O=C(NCCN1CCOCC1)[C@@H]1c2ccccc2C(=O)N(Cc2ccccc2Cl)[C@H]1c1ccc(CO)cc1
Ans. 4.63

Qu. z-score lookup needed for COc1ccc(CCNC(=O)[C@@]2(Cc3ccccc3I)c3ccccc3C(=O)N(C3CCCCC3)[C@H]2c2ccc(CO)cc2)cc1 , thanks.
Ans. 3.52

Qu. What measured z-score goes with C=CCN1C(=O)[C@]2(CCS(=O)(=O)c3ccccc3)N=C(c3ccc(OCCCO)cc3)O[C@@H]2c2ccccc21 ?
Ans. 29.1

Qu. // z-score lookup, key: CCCC=C(CCC)[C@@H](NS(=O)(=O)c1ccc(C(F)(F)F)cc1)c1ccccc1
Ans. 0.669

Qu. Consider the molecule COC(=O)C1=CC(CCCO)=CC(c2cccs2)N(C)C=C1C(=O)OC (stereo not given) and give its measured z-score.
Ans. 2.47

Qu. For the molecule COc1ccc([Si](C)(C)[C@H]2[C@H](CC(=O)N3CCC[C@H]3CO)O[C@@]3(C(=O)N(Cc4ccc(N5CCOC5=O)cc4)c4ccccc43)[C@@H]2C)cc1 , what z-score is on record?
Ans. 9.5

Qu. // returns reported z-score for input COCCOC(=O)N1C(=O)[C@@]2(c3cc(C#CC4(O)CCCCCC4)ccc31)[C@H](C(=O)Nc1nc3ccccc3s1)[C@H]1C(=O)O[C@H](c3ccccc3)[C@H](c3ccccc3)N1[C@@H]2c1ccc(O)cc1
Ans. 0.4

Qu. GET /values?readout=z-score&item= CCCCC(CC)C(O)C1C=CC2C(=O)N(c3ccccc3)C(=O)C2N1Nc1ccccc1F (stereo not given)
Ans. 0.741

Qu. Item CCCCCN1CC=CC23O[C@@H]4/C=C\CCCOC(=O)C4[C@H]2C(=O)N(C(C)CO)[C@@H]3C1=O (stereo not given in full) has what recorded z-score?
Ans. 1.47

Qu. May I ask what z-score has been recorded for CC(C)C[C@@H]1NC(=O)[C@@H]2C[C@H](C(=O)NCCCCCCN)[C@H](c3cccc(OCCO)c3)N2C1=O ?
Ans. 3.69

Qu. // z-score lookup, key: CCCC[C@@H](O)C1=C(COc2ccccc2)C[C@H]2C(=O)N(Cc3ccccc3)C(=O)[C@H]2[C@H]1CO
Ans. 13.9

Qu. Could you share which z-score value was measured for C=C(/C(=C/C[C@H](OC(=O)c1ccncc1)c1ccc(CO)o1)c1cnc2ccccc2c1)C(C)C ?
Ans. 6.75

Qu. Reported z-score for COCCOC(=O)N1C(=O)[C@@]2(c3cc(C#CC4=CCCCC4)ccc31)[C@H](c1ccccc1OCCO)N1[C@H](c3ccccc3)[C@H](c3ccccc3)OC(=O)[C@H]1[C@@H]2C(=O)N1CCN(c2ncccn2)CC1 : what is it?
Ans. 1.04

Qu. Recorded z-score for COC(=O)C(CC#Cc1ccc2c(c1)[C@]1(C(=O)N2)[C@H](c2ccc(O)cc2)N2[C@H](c3ccccc3)[C@H](c3ccccc3)OC(=O)[C@H]2[C@@H]1C(=O)NC[C@H](O)c1ccccc1)C(=O)OC , please?
Ans. 1.13

Hey, just so you know, these numbers are from PubChem BioAssay.
